Origin of the recorded values: BigSolDB 2.1

# particulars: in isopropanol, 298.15 K
assayEndpoint: solubility (mole fraction)
# answer = number (no unit)

Give its solubility (mole fraction) value. Item: `O=P1(O)Oc2ccc3ccccc3c2-c2c(ccc3ccccc23)O1` 0.0038

----------
# particulars: in n-butanol, 318.15 K
assayEndpoint: solubility (mole fraction)
# answer = number (no unit)

Give its solubility (mole fraction) value. Item: `O=P1(O)Oc2ccc3ccccc3c2-c2c(ccc3ccccc23)O1` 0.00887

----------
# particulars: in methanol, 288.15 K
assayEndpoint: solubility (mole fraction)

Give its solubility (mole fraction) value. Item: `O=P1(O)Oc2ccc3ccccc3c2-c2c(ccc3ccccc23)O1` 0.00336

----------
# particulars: in ethyl acetate, 318.15 K
assayEndpoint: solubility (mole fraction)
# answer = number (no unit)

Give its solubility (mole fraction) value. Item: `O=P1(O)Oc2ccc3ccccc3c2-c2c(ccc3ccccc23)O1` 0.000555

----------
# particulars: in n-propanol, 333.15 K
assayEndpoint: solubility (mole fraction)
# answer = number (no unit)

Give its solubility (mole fraction) value. Item: `O=P1(O)Oc2ccc3ccccc3c2-c2c(ccc3ccccc23)O1` 0.0142

----------
# particulars: in isopropanol, 328.15 K
assayEndpoint: solubility (mole fraction)
# answer = number (no unit)

Give its solubility (mole fraction) value. Item: `O=P1(O)Oc2ccc3ccccc3c2-c2c(ccc3ccccc23)O1` 0.00763

----------
# particulars: in n-butanol, 308.15 K
assayEndpoint: solubility (mole fraction)
# answer = number (no unit)

Give its solubility (mole fraction) value. Item: `O=P1(O)Oc2ccc3ccccc3c2-c2c(ccc3ccccc23)O1` 0.00802

----------
# particulars: in ethanol, 328.15 K
assayEndpoint: solubility (mole fraction)
# answer = number (no unit)

Give its solubility (mole fraction) value. Item: `O=P1(O)Oc2ccc3ccccc3c2-c2c(ccc3ccccc23)O1` 0.00632

----------
# particulars: in isopropanol, 293.15 K
assayEndpoint: solubility (mole fraction)

Give its solubility (mole fraction) value. Item: `O=P1(O)Oc2ccc3ccccc3c2-c2c(ccc3ccccc23)O1` 0.00354

----------
# particulars: in methanol, 298.15 K
assayEndpoint: solubility (mole fraction)
# answer = number (no unit)

Give its solubility (mole fraction) value. Item: `O=P1(O)Oc2ccc3ccccc3c2-c2c(ccc3ccccc23)O1` 0.00373

----------
# particulars: in ethyl acetate, 298.15 K
assayEndpoint: solubility (mole fraction)
# answer = number (no unit)

Give its solubility (mole fraction) value. Item: `O=P1(O)Oc2ccc3ccccc3c2-c2c(ccc3ccccc23)O1` 0.000387

----------
# particulars: in isobutanol, 333.15 K
assayEndpoint: solubility (mole fraction)
# answer = number (no unit)

Give its solubility (mole fraction) value. Item: `O=P1(O)Oc2ccc3ccccc3c2-c2c(ccc3ccccc23)O1` 0.00738

----------
# particulars: in n-propanol, 328.15 K
assayEndpoint: solubility (mole fraction)
# answer = number (no unit)

Give its solubility (mole fraction) value. Item: `O=P1(O)Oc2ccc3ccccc3c2-c2c(ccc3ccccc23)O1` 0.0123

----------
# particulars: in n-propanol, 303.15 K
assayEndpoint: solubility (mole fraction)
# answer = number (no unit)

Give its solubility (mole fraction) value. Item: `O=P1(O)Oc2ccc3ccccc3c2-c2c(ccc3ccccc23)O1` 0.00652

----------
# particulars: in isopropanol, 308.15 K
assayEndpoint: solubility (mole fraction)
# answer = number (no unit)

Give its solubility (mole fraction) value. Item: `O=P1(O)Oc2ccc3ccccc3c2-c2c(ccc3ccccc23)O1` 0.00445

----------
# particulars: in n-propanol, 293.15 K
assayEndpoint: solubility (mole fraction)
# answer = number (no unit)

Give its solubility (mole fraction) value. Item: `O=P1(O)Oc2ccc3ccccc3c2-c2c(ccc3ccccc23)O1` 0.0053

----------
# particulars: in ethanol, 308.15 K
assayEndpoint: solubility (mole fraction)
# answer = number (no unit)

Give its solubility (mole fraction) value. Item: `O=P1(O)Oc2ccc3ccccc3c2-c2c(ccc3ccccc23)O1` 0.00533

----------
# particulars: in n-butanol, 313.15 K
assayEndpoint: solubility (mole fraction)
# answer = number (no unit)

Give its solubility (mole fraction) value. Item: `O=P1(O)Oc2ccc3ccccc3c2-c2c(ccc3ccccc23)O1` 0.00844

----------
# particulars: in n-butanol, 333.15 K
assayEndpoint: solubility (mole fraction)
# answer = number (no unit)

Give its solubility (mole fraction) value. Item: `O=P1(O)Oc2ccc3ccccc3c2-c2c(ccc3ccccc23)O1` 0.0107

----------
# particulars: in isopropanol, 288.15 K
assayEndpoint: solubility (mole fraction)
# answer = number (no unit)

Give its solubility (mole fraction) value. Item: `O=P1(O)Oc2ccc3ccccc3c2-c2c(ccc3ccccc23)O1` 0.00339

----------
# particulars: in n-propanol, 313.15 K
assayEndpoint: solubility (mole fraction)
# answer = number (no unit)

Give its solubility (mole fraction) value. Item: `O=P1(O)Oc2ccc3ccccc3c2-c2c(ccc3ccccc23)O1` 0.00832

----------
# particulars: in ethanol, 313.15 K
assayEndpoint: solubility (mole fraction)

Give its solubility (mole fraction) value. Item: `O=P1(O)Oc2ccc3ccccc3c2-c2c(ccc3ccccc23)O1` 0.00544

----------
# particulars: in n-butanol, 303.15 K
assayEndpoint: solubility (mole fraction)

Give its solubility (mole fraction) value. Item: `O=P1(O)Oc2ccc3ccccc3c2-c2c(ccc3ccccc23)O1` 0.00763

----------
# particulars: in isopropanol, 313.15 K
assayEndpoint: solubility (mole fraction)

Give its solubility (mole fraction) value. Item: `O=P1(O)Oc2ccc3ccccc3c2-c2c(ccc3ccccc23)O1` 0.00491

----------
# particulars: in methanol, 323.15 K
assayEndpoint: solubility (mole fraction)
# answer = number (no unit)

Give its solubility (mole fraction) value. Item: `O=P1(O)Oc2ccc3ccccc3c2-c2c(ccc3ccccc23)O1` 0.00555

----------
# particulars: in ethyl acetate, 303.15 K
assayEndpoint: solubility (mole fraction)

Give its solubility (mole fraction) value. Item: `O=P1(O)Oc2ccc3ccccc3c2-c2c(ccc3ccccc23)O1` 0.000434

----------
# particulars: in ethyl acetate, 293.15 K
assayEndpoint: solubility (mole fraction)
# answer = number (no unit)

Give its solubility (mole fraction) value. Item: `O=P1(O)Oc2ccc3ccccc3c2-c2c(ccc3ccccc23)O1` 0.000331

----------
# particulars: in n-butanol, 323.15 K
assayEndpoint: solubility (mole fraction)

Give its solubility (mole fraction) value. Item: `O=P1(O)Oc2ccc3ccccc3c2-c2c(ccc3ccccc23)O1` 0.00932

----------
# particulars: in isobutanol, 303.15 K
assayEndpoint: solubility (mole fraction)
# answer = number (no unit)

Give its solubility (mole fraction) value. Item: `O=P1(O)Oc2ccc3ccccc3c2-c2c(ccc3ccccc23)O1` 0.0045

----------
# particulars: in methanol, 333.15 K
assayEndpoint: solubility (mole fraction)
# answer = number (no unit)

Give its solubility (mole fraction) value. Item: `O=P1(O)Oc2ccc3ccccc3c2-c2c(ccc3ccccc23)O1` 0.00658

----------
# particulars: in isobutanol, 298.15 K
assayEndpoint: solubility (mole fraction)

Give its solubility (mole fraction) value. Item: `O=P1(O)Oc2ccc3ccccc3c2-c2c(ccc3ccccc23)O1` 0.0041

----------
# particulars: in methanol, 308.15 K
assayEndpoint: solubility (mole fraction)
# answer = number (no unit)

Give its solubility (mole fraction) value. Item: `O=P1(O)Oc2ccc3ccccc3c2-c2c(ccc3ccccc23)O1` 0.00452

----------
# particulars: in isobutanol, 293.15 K
assayEndpoint: solubility (mole fraction)
# answer = number (no unit)

Give its solubility (mole fraction) value. Item: `O=P1(O)Oc2ccc3ccccc3c2-c2c(ccc3ccccc23)O1` 0.00381
